System: NCI-H23 lung
test: NCI tumour cell line growth inhibition, 48 h
valueKind: TGI

Recorded results for 4 molecules are shown here.
molecule | testedSystem | TGI
COc1ccc(-c2coc3ncnc(N)c23)cc1 | NCI-H23 lung | > 25 µM
CCC[CH2][Sn]1([CH2]CCC)[O]C(c2ccccn2)S(=O)(=O)[O]1 (stereo not given) | NCI-H23 lung | 3.5 µM
COC(=O)c1cc(C)ccc1/C=C1\Cc2cc(C)c(C)cc2C1=O | NCI-H23 lung | > 100 µM
O=c1[nH]cnc2c(C3OC(CO)C(O)C3O)[nH]nc12 (stereo not given) | NCI-H23 lung | > 100 µM

The reported value for C[C@]12CCC3c4ccc(OC(=O)c5ccccc5)cc4CC[C@H]3C1CC[C@@H]2OC(=O)C12OC1CCC2=O (stereo not given in full) in terms of TGI is 9.76 µM

The reported value for CO/C(=N/N1CC1C(F)(F)F)c1ccncc1 (stereo not given) in terms of TGI is > 100 µM

The reported value for COC(=O)c1cc(NC2OCC(OC(C)=O)C(OC(C)=O)C2OC(C)=O)nc(SC)c1C(=O)OC (stereo not given) in terms of TGI is > 100 µM

The reported value for "NCCCNc1ccc2c(c1)[n+]([O-])c1ccccc1[n+]2[O-]" in terms of TGI is 97.5 µM

The reported value for COc1ccc(NC(=O)C(=O)C(CC2C(=O)NC(=S)NC2=O)C(=O)c2ccc3ccccc3c2)c([N+](=O)[O-])c1 (stereo not given) in terms of TGI is > 100 µM

The reported value for "O=C(O)C(=O)Cc1ccc2c(c1)OCO2" in terms of TGI is > 100 µM

====

Test system: IGROV1 ovarian
test: NCI tumour cell line growth inhibition, 48 h
valueKind: TGI

compound | recordedValue
O=C1O/C(=C\c2ccc(O)c(Br)c2)C(c2ccc(O)cc2)=C1Cl | > 100 µM
COc1ccc(OC)c(/C=C/c2nnc(Nc3ccc(Cl)cc3)o2)c1 | > 100 µM
CC1=C(C)SC(=C2Sc3c(n(C)c(=O)[nH]c3=O)S2)S1 | > 100 µM
c1cncc(C2c3[nH]c4ccccc4c3CCN2CCCN2CCCCC2)c1 (stereo unspecified) | > 100 µM

The reported value for "COc1ccc(C(=S)c2cc(OC)c(OC)c(OC)c2)cc1OC(=O)CCl" in terms of TGI is > 100 µM

The reported value for "CNC(=O)Nc1cc2c3c(c1)CCCN3CCC2" in terms of TGI is > 10 µM

The reported value for "COc1ccc(C)c2c1N[C@](C)([C@]1(C)Nc3c(OC)ccc(C)c3C1=O)C2=O" in terms of TGI is > 100 µM

The reported value for "O=C1c2ccccc2C(=O)N1/N=C\c1ccc(Br)cc1" in terms of TGI is > 100 µM

The reported value for "COc1ccc(-c2coc3ncnc(N)c23)cc1" in terms of TGI is > 25 µM

The reported value for C[C@]12CC[C@@H]3c4ccc(OC(=O)c5ccccc5)cc4CC[C@H]3[C@@H]1CCC2OC(=O)c1cccc2c(=O)c3ccccc3[nH]c12 (stereo partly specified) in terms of TGI is 33.3 µM

The reported value for Cc1c(O)c(OC2OC(CO)C(O)C(O)C2O)cc2c1CC[C@@H]1C2(C)C(=O)C[C@]2(C)[C@@H]([C@@](C)(O)C(O)/C=C/C(C)(C)O)[C@H](O)C[C@@]12C (stereo partly specified) in terms of TGI is > 100 µM

The reported value for "CCSC(=Nc1ccccc1)SC" in terms of TGI is > 100 µM

The reported value for "NCCCNc1ccc2c(c1)[n+]([O-])c1ccccc1[n+]2[O-]" in terms of TGI is 41.5 µM
